Experimental System: T1, human PD-L1 ECD-His (human, UniProt Q9NZQ7 19-238)
T1 construct: extracellular domain; Analyte in all SPR and BLI runs; also called hPD-L1_ECD-His; hPD-L1 ECD-His; not shown: His tag
T1 sequence (Q9NZQ7 19-238): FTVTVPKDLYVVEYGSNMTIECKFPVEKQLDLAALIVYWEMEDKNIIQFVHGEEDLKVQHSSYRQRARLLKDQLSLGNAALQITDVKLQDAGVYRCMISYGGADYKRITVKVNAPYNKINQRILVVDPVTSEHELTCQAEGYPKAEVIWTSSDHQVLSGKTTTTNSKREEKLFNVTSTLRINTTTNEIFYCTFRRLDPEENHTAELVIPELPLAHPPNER
Method Description: SPR, 25 C, antibody captured by anti-human IgG Fc, hPD-L1-His analyte, 1:1 fit
Quantity Name: Kd

PL2#4 IgG2 (antibody, V domains shown, Human IgG2 backbone) VH: EVQLVQSGGGLVKPGGSLRLSCAASGFTFSSYTMNWVRQAPGKGLEWVSSISSGSDYLYYADSVKGRFTISRDNAKNSLYLQMNSLRAEDTAVYYCARNELRWYPLAGAFDIWGQGTMVTVSS VL: QSVVTQPPSMSAAPGQRVTISCSGVSSYIESSYVSWYQQLPGTAPRLLIYDDDMRPSGIPDRFSGSKSGTSATLAITGLQTGDEADYYCKIWDSGLGGVFGGGTKLTVL : 1.27 nM
PL2#5 IgG2 (antibody, V domains shown, Human IgG2 backbone) VH: EVQLVQSGGGLVKPGGSLRLSCAASGFTFSSYTMNWVRQAPGKGLEWVSSISSGSDYLYYADSVKGRFTISRDNAKNSLYLQMNSLRAEDTAVYYCARNELRWYPFAGAFDIWGQGTMVTVSS VL: QSVVTQPPSMSAAPGQRVTISCSGSSSYIESSYVSWYQQLPGTAPRLLIYDDDMRPSGIPDRFSGSKSGTSATLAITGLQTGDEADYYCEIWDSRLGGVFGGGTKLTVL : 3.07 nM
PL2#3 IgG2 (antibody, V domains shown, Human IgG2 backbone) VH: EVQLVQSGGGLVKPGGSLRLSCAASGFTFSSYTMNWVRQAPGKGLEWVSSISSGSDYLYYADSVKGRFTISRDNAKNSLYLQMNSLRAEDTAVYYCARNELRWYPQAGAFDRWGQGTMVTVSS VL: QSVVTQPPSMSAAPGQRVTISCSGSSSYIESSYVGWYQQLPGTAPRLLIYDDDMRPSGIPDRFSGSKSGTSATLAITGLQTGDEADYYCEIWRSGLGGVFGGGTKLTVL : 0.516 nM
PL2 IgG2 (antibody, V domains shown) VH: EVQLVQSGGGLVKPGGSLRLSCAASGFTFSSYTMNWVRQAPGKGLEWVSSISSGSDYLYYADSVKGRFTISRDNAKNSLYLQMNSLRAEDTAVYYCARNELRWYPQAGAFDIWGQGTMVTVSS VL: QSVVTQPPSMSAAPGQNVTISCSGSSSYIESSYVSWYQQLPGTAPRLLIYDDDMRPSGIPDRFSGSKSGTSATLAITGLQTGDEADYYCEIWDSGLGGVFGGGTKLTVL : 6.96 nM
